- test_system: RAC-alpha serine/threonine-protein kinase (Homo sapiens, UniProt P31749)
- Sequence (P31749 whole entry): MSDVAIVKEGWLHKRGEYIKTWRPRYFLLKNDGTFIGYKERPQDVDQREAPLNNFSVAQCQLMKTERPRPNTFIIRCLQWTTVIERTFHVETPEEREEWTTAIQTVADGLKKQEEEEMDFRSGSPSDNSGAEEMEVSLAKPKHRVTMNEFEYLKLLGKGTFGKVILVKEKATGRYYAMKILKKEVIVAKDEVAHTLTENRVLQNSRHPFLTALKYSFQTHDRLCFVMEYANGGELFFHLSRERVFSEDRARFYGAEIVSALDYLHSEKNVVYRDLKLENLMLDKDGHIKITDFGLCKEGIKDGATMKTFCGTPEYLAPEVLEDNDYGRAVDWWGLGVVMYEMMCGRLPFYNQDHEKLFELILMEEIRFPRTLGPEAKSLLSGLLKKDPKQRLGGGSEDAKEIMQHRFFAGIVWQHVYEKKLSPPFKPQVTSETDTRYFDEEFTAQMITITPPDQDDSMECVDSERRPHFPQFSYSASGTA
- method_summary: Kinase Assay: For the assay 50 nl of a 100 fold concentrated solution of the test compound in DMSO was pipetted into a black low volume 384 well microtiter plate (Greiner Bio-One, Frickenhausen, Germany), 2 μl of a solution of Akt1 in assay buffer [50 mM TRIS/HCl pH 7.5, 5 mM MgCl2, 1 mM dithiothreitol, 0.02% (v/v) Triton X-100 (Sigma)] were added and the mixture was incubated for 15 min at 22° C. to allow pre-binding of the test compounds to the enzyme before the start of the kinase reaction. Then the kinase reaction was started by the addition of 3 μl of a solution of adenosine-tri-phosphate (ATP, 16.7 μM=>final conc. in the 5 μl assay volume is 10 μM) and substrate (1.67 μM=>final conc. in the 5 μl assay volume is 1 μM) in assay buffer and the resulting mixture was incubated for a reaction time of 60 min at 22° C. The concentration of Akt1 in the assay was adjusted depending of the activity of the enzyme lot and was chosen appropriate to have the assay in the linear range, typical enzyme concentrations were in the range of about 0.05 ng/μl (final conc. in the 5 μl assay volume). The reaction was stopped by the addition of 5 μl of a solution of HTRF detection reagents (200 nM streptavidine-XL665 [Cisbio] and 1.5 nM anti-phosho-Serine antibody [Millipore, cat. #35-001] and 0.75 nM LANCE Eu-W 1024 labeled anti-mouse IgG antibody [Perkin Elmer]) in an aqueous EDTA-solution (100 mM EDTA, 0.1% (w/v) bovine serum albumin in 50 mM HEPES/NaOH pH 7.5). The resulting mixture was incubated 1 h at 22° C. to allow the binding of the biotinylated phosphorylated peptide to the streptavidine-XL665 and the antibodies. Subsequently the amount of phosphorylated substrate was evaluated by measurement of the resonance energy transfer from the anti-mouse-IgG-Eu-Chelate to the streptavidine-XL665. Therefore, the fluorescence emissions at 620 nm and 665 nm after excitation at 350 nm was measured in a HTRF reader, e.g. a Rubystar (BMG Labtechnologies, Offenburg, Germany) or a Viewlux (Perkin-Elmer).
reported_endpoint: pIC50
Keep in mind that pIC50 stands for -log10 of concentration in molar terms.

CCOc1nn2c(-c3ccccc3)c(-c3ccc(C4(N)CCC4)cc3)nc2c(C)c1C; 7.35
NC(=O)c1ccnn2c(-c3ccccc3)c(-c3ccc(C4(N)CCC4)cc3)nc12; 7.19

For the next question, use this compound.
Name the recorded pIC50 of the item `NC1(c2ccc(-c3nc4ccc(C(F)(F)F)nn4c3-c3ccccc3)cc2)CCC1` in your answer.
6.92
